- Tested on: NCI-H226
- test description: NCI tumour cell line growth inhibition, 48 h
Calls of active or inactive are those of the source. No stated cut-off is given here; in the data, active = GI50 up to about 1.1 µM and inactive = higher.
metric name: GI50

Worked cases, answers included:
OC[C@H]1O[C@@H](Oc2cc(O)cc(/C=C/c3ccc(O)cc3)c2)[C@H](O)[C@@H](O)[C@@H]1O    > 100 µM (inactive)
c1csc(-c2cc(-c3cccs3)c(-c3ccsc3)s2)c1    > 100 µM (inactive)
O=c1cc(-c2ccc(O)cc2)oc2cc(O)cc(O)c12    24.7 µM (inactive)
COC(=O)CCC(=O)C(C#N)c1ccc(Cl)cc1Cl (configuration not stated)    > 100 µM (inactive)
COc1cccc(C2c3cc4c(cc3OC(N3CCCC3)C2C)OCO4)c1O (configuration not stated)    4.53 µM (inactive)
O=S(=O)(c1cc(Cl)ccc1Cl)N1CCN(c2ccc(Cl)c(Cl)c2)CC1    21.7 µM (inactive)
COC(=O)C1=C(C)C(=O)C2(CCCCCC2C(=O)OC)C1 (configuration not stated)    > 100 µM (inactive)
N=C(N)NC(=N)Nc1ccc(S(=O)(=O)O)cc1    > 100 µM (inactive)

// batch mode: one GI50 value per listed entry
1. O=C(CSc1nc2ccccc2c(=O)n1-c1ccccc1)N/N=C1\C(=O)Nc2ccc(Br)cc21
2. [N-]=[N+]=NC1C2CC3C4CC5CC3[C@H](C2)C(C5)C41 (some centres not stated)
3. O[C@H]1[C@H](O)[C@@H](O)[C@H](O)[C@@H](O)[C@H]1O
4. CC(=O)OC1CC2C(=O)C(=O)C1(C)C2(C)C (configuration not stated)
5. O=[N+]([O-])c1ccc(C2=Nc3ccccc3[S+]([O-])C(c3ccccc3)C2)cc1 (configuration not stated)
6. O=C(/C=C(\O)C(=O)O)/C=C(\O)c1ccccc1

Result:
1. 12.1 µM (inactive)
2. 75.3 µM (inactive)
3. > 1000 µM (inactive)
4. > 100 µM (inactive)
5. 16.1 µM (inactive)
6. > 4.65 µM (inactive)

----------
Task for the reader: assign each of the following compounds its reported GI50.
- Tested on: T47D
- test description: NCI tumour cell line growth inhibition, 48 h
Calls of active or inactive are those of the source. Cut-off read from the data, not from the text of the source: active = GI50 up to about 1.1 µM and inactive = higher.

CC(C)C(C)C(O)C(O)C(C)C1CCC2C3COC(=O)C4CC(O)C(O)CC4(C)C3CCC12C (centres undefined)    40.9 µM (inactive)
COc1ccc2c3c1OC1C(OC)(OC)CC4(C=C2)CN(C)CCC314 (centres undefined)    > 100 µM (inactive)
CC(=O)OC1CC2C(=O)C(=O)C1(C)C2(C)C (centres undefined)    > 100 µM (inactive)
O=C1CCCCCC1CC(Sc1ccccc1)Sc1ccccc1 (centres undefined)    14.4 µM (inactive)
C=C(C)[C@H]1C=C[C@@H](OC(=O)c2cccnc2)[C@@]23CO[C@@](C)([C@H](OC(=O)c4cccnc4)[C@@]4(OC(C)=O)C[C@H](C)[C@H](OCCC)[C@@H]4[C@H]2OC(C)=O)[C@H]13    > 15 µM (inactive)
CCOC(=O)NC(Nc1ccc(C)cc1)(C(F)(F)F)C(F)(F)F    > 100 µM (inactive)
O=C1C(NS(=O)(=O)c2ccccc2)=C(N(Cc2ccccc2)Cc2ccccc2)C(=O)c2ccccc21    32.1 µM (inactive)
Nc1nnnn1NC(=O)NCCCl    > 10 µM (inactive)

Ask: Requested read-out GI50, target or system T47D, entry `O=S(=O)(c1cc(Cl)ccc1Cl)N1CCN(c2ccc(Cl)c(Cl)c2)CC1`
Result: 20.4 µM (inactive)

----------
- Tested on: UACC-257
- test description: NCI tumour cell line growth inhibition, 48 h
The source made the active and inactive calls. Cut-off read from the data, not from the text of the source: active = GI50 up to about 1.1 µM and inactive = higher.
metric name: GI50

Worked cases, answers included:
CCOC(=O)NC(=O)c1cn(CCCOC(=O)CCCCCCCCCCC(=O)OCCCn2cc(C(=O)NC(=O)OCC)c(=O)[nH]c2=O)c(=O)[nH]c1=O    > 100 µM (inactive)
CN(C)c1ccc(/C=C2\C[C@H]3[C@@H]4CC=C5C[C@@H](O)CC[C@]5(C)[C@H]4CC[C@]3(C)[C@H]2O)cc1    18.2 µM (inactive)

// batch mode: one GI50 value per listed entry
1. CC(=O)O[C@H]1C(=O)[C@@]2(C)[C@H]([C@H](OC(=O)c3ccccc3)[C@]3(O)C[C@H](OC(=O)[C@H](O)[C@@H](NC(=O)C(C)(C)C)c4ccccc4)C(C)=C1C3(C)C)[C@]1(OC(C)=O)CO[C@@H]1C[C@@H]2O
2. Cc1[nH]c2ccccc2c1-c1cc(-c2cc(-c3c(C)[nH]c4ccccc34)nc(N)n2)nc(N)n1
3. C=CC(=O)c1ccc2c(c1)OCCOCCOCCOCCOCCO2

Result:
1: 0.127 µM (active); 2: > 100 µM (inactive); 3: 19.1 µM (inactive)

// batch mode: one GI50 value per listed entry
1. CN(CCO)CC(=O)CC(O)(C(F)(F)F)C(F)(F)F
2. CCOC(=O)c1sc2[n+](c1C)C(=O)/C(=C/c1ccccc1Cl)S2
3. COc1cccc2c(=O)c3c(O)c4cc(N(C)C)ccc4c(OC(C)=O)c3oc12

Result:
1. 37.6 µM (inactive)
2. 4.83 µM (inactive)
3. 12.9 µM (inactive)

----------
- Tested on: NCI-H460
- test description: NCI tumour cell line growth inhibition, 48 h
Activity calls are given as the source filed them. Rule as the data show it: active = GI50 up to about 1.1 µM and inactive = higher.
Use one of these outcomes when replying: active, inactive

CCCCOCn1c(=O)[nH]c(=O)c2ccccc21    inactive
COC(=O)C1=C(c2ccc3c(c2)OCO3)OC(c2cc(OC)c(OC)c(OC)c2)C1 (stereo not drawn)    inactive
Cc1ccc(NC(=O)c2cccc(OP(=O)(O)Nc3ccc(C)cc3)c2)cc1    inactive
COc1ccc(Nc2nc(N)c(C(=O)c3ccccc3)s2)cc1    active
Cc1ccc(/N=C/c2ccc3c(c2)OCO3)cc1C    inactive

Ask: Call for entry O=C1/C(=N\O)C2CCC1C2 (stereo not drawn) :
Result: inactive

Ask: Call for entry `O=c1cc(-c2ccc(O)cc2)oc2cc(O)cc(O)c12` :
Result: inactive

Ask: Call for entry `COc1cccc(-c2nc(-c3cnccn3)n(C/C=C/c3ccccc3)n2)c1` :
Result: inactive

Ask: Call for entry O=[N+]([O-])c1ccc2nc3n(c2c1)C(c1c(F)cccc1F)SC3 (stereo not drawn) :
Result: inactive

Ask: Call for entry `COc1ccc(-c2cc(C(=O)Nc3cc(C(F)(F)F)cc(C(F)(F)F)c3)c3ccccc3n2)cc1` :
Result: inactive

----------
- Test system: COLO 205
- test description: NCI tumour cell line growth inhibition, 48 h
Calls of active or inactive are those of the source. Cut-off read from the data, not from the text of the source: active = GI50 up to about 1.1 µM and inactive = higher.
Use one of these outcomes when replying: true = active, false = inactive

COc1ccc(C2=CC(c3ccc4c(c3)OCO4)c3c(c4ccccc4oc3=O)O2)cc1OC (stereo not given)    false
O=C1CCC2CCOc3ccc(O)c1c32 (stereo not given)    false
Cn1cnc(C(N)=[Se])c1N    false
CC(=O)c1c(O)ccc2c1c1c(n2C)C(=O)c2ccccc2C1=O    false
CCc1cc(C)cc2[n+]1CC=C2.[O-][Cl+3]([O-])([O-])[O-]    false

Ask: Call for entry `Cc1ccc(-c2ccc3c(c2)Sc2ccccc2O3)n1C` :
Result: true

Ask: Call for entry CC(=O)NC1C(OCc2ccccc2)OC(CO)C(O)C1OC(C)C(=O)NC(C)C(=O)NC(CCC(=O)NCCCCNc1c2ccccc2nc2cccc([N+](=O)[O-])c12)C(N)=O (stereo not given) :
Result: true

Ask: Call for entry `CCOC(=O)c1ccc(/C(C)=N/NC(N)=S)cc1` :
Result: false

Ask: Call for entry `Nc1nc(S)nc(C(=O)Nc2ccc(Cl)c(Cl)c2)c1-c1ccc(Cl)cc1` :
Result: false

Ask: Call for entry `Clc1cc(OCc2nn3c(Cc4ccccc4)nnc3s2)c(Cl)cc1OCc1nn2c(Cc3ccccc3)nnc2s1` :
Result: false

----------
- System: SNB-75
- test description: NCI tumour cell line growth inhibition, 48 h
Active and inactive are the calls of the source. No stated cut-off is given here; in the data, active = GI50 up to about 1.1 µM and inactive = higher. Where a SMILES comes first, the peptide text is derived from it. The star is where a group is joined. Cbz = O=C(OCc1ccccc1)*; Boc = CC(C)(C)OC(=O)*; OSu = O=C1CCC(=O)N1O*; Bn = c1ccc(C*)cc1
metric name: GI50

Worked cases, answers included:
Nc1c(S(=O)(=O)O)cc(S(=O)(=O)O)c2ccc(/N=N/c3ccc(/C=C/c4ccc(/N=N/c5ccc6c(S(=O)(=O)O)cc(S(=O)(=O)O)c(N)c6c5O)cc4S(=O)(=O)O)c(S(=O)(=O)O)c3)c(O)c12    56.9 µM (inactive)
Cc1[nH]c(-c2ccccc2)c2nc(N(C)C)oc(=O)c12    > 100 µM (inactive)
Cc1c(C#N)c(N)[nH]c(=S)c1C#N    > 100 µM (inactive)
Cc1ccccc1S(=O)(=O)OC1NS(=O)(=O)c2ccccc21 (centres undefined)    > 100 µM (inactive)
CCCCCCCCCC1CC(=O)OC2=C1C(=O)CCC2 (centres undefined)    > 100 µM (inactive)
COc1ccc(C2=CC(c3ccc4c(c3)OCO4)c3c(c4ccccc4oc3=O)O2)cc1OC (centres undefined)    0.51 µM (active)
CC[C@]1(Cc2ccc(OC)c(OC)c2)C=[N+]([O-])O[C@H](OC2CCCC2(c2ccccc2)c2ccccc2)[C@@H]1OC(=O)C(C)(C)C (some centres undefined)    3.63 µM (inactive)
CCN(CC)CCN1CCN=C2c3cc(OC)ccc3Nc3c([N+](=O)[O-])ccc1c32    1.95 µM (inactive)
Cc1cccc(-c2nc3c(C(=O)NCCN(C)C)cccc3[nH]2)c1    2.2 µM (inactive)
Cc1ccc(S(=O)(=O)N/N=C/C(C)C)cc1    70.6 µM (inactive)

// batch mode: one GI50 value per listed entry
1. CC(C)(C)OC(=O)NC(Cc1ccc(OCc2ccccc2)cc1)C(=O)NC(CCCCNC(=O)OCc1ccccc1)C(=O)ON1C(=O)CCC1=O (centres undefined) (Boc-Tyr(Bn)-Lys(Cbz)-OSu; configuration not given here)
2. CCCCOCn1c(=O)[nH]c(=O)c2ccccc21
3. CC(=O)CC(=O)Nn1c(-c2cccs2)nc2ccc(I)cc2c1=O
4. O=C(c1ccccc1)c1ccc2[nH]c(-c3c(Cl)c(Cl)c(Cl)c(Cl)c3C(=O)Nc3ccco3)nc2c1
5. FC(F)(F)P1C2C=CC(CC2)C1(F)F (centres undefined)
6. COc1c2cc(C(C)(C)C)cc1CSCc1cc(C(C)(C)C)cc(c1OC)CCCCC2
7. CN(C)/C=N/C1CCC(C(C)(C)C)CC1 (centres undefined)
8. O=S1(=O)OCCOS(=O)(=O)C1Cc1cccc2ccccc12

Result:
1: 21.8 µM (inactive); 2: 13.3 µM (inactive); 3: 43.5 µM (inactive); 4: > 100 µM (inactive); 5: > 100 µM (inactive); 6: > 50 µM (inactive); 7: 19.5 µM (inactive); 8: 29.6 µM (inactive)

Ask: Please report the recorded GI50 for O=C(/C=C/c1ccc(Oc2cc(C(=O)/C=C/c3ccc(O)cc3)c(O)cc2O)cc1)c1ccc(O)cc1O [RHUSCHALCONE II] .
Result: 4.63 µM (inactive)
